assay: qHTS assay to test for compound auto fluorescence at 460 nm (blue) in HEK293 cell free culture (AID 720681); conditions: cell-free medium, autofluorescence 405/460 nm (blue); series mostly up to 91.3 µM
Calls of active or inactive are those of the source. Calls come from the whole dose curve; as a rule, active = well fitted curve in the direction sought with a large enough effect in the repeat runs; inconclusive = weak or mixed curves; inactive = flat fitted curve, though single readings scatter.
parameter.measured: outcome

Some solved entries appear below for comparison.
1) CC(=O)Nc1c(I)c(NC(C)=O)c(I)c(C(=O)O)c1I = inactive
2) CCCCCCc1ccc(O)cc1O = inactive
3) O=C1O[C@H]([C@@H](O)CO)C(O)=C1O = inactive
4) C/C=C/C=C/C(=O)O = inactive

Please give outcome, item by item, for the list that follows.
1. C1=CC2C3C=CC(C3)C2C1 (configuration not stated)
2. CCCCCCCCCCCCCCCC[N+](C)(C)Cc1ccccc1
3. O=C1NC(=O)C(c2ccccc2)(c2ccccc2)N1
4. Cc1ncc([N+](=O)[O-])n1CCO
5. O=C(O)c1ccccc1

["inactive", "inactive", "inactive", "inactive", "inactive"]

###

target: Peroxisome proliferator-activated receptor delta (Homo sapiens); test: qHTS assay to identify small molecule antagonists of the peroxisome proliferator-activated receptor delta (PPARd) signaling pathway (AID 743215); conditions: HEK293H PPARd-UAS-bla, beta-lactamase FRET ratio, antagonist, 17 h; series mostly up to 62 µM;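 note: cells stimulated with agonist L165041 at 300 nM final during compound exposure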
Records with an inconclusive call do not appear. The source made the active and inactive calls. Calls come from the whole dose curve; as a rule, active = well fitted inhibition curve with a large enough effect in the signal ratio in the repeat runs (not every such curve was filed as active); inconclusive = weak or mixed curves, or effect the other way; inactive = no such curve, though single readings can be large or run the other way; the % refers to the signal ratio.
I would appreciate it if you answered using one of these outcomes: active, inactive

1) Cc1ncc([N+](=O)[O-])n1CCO = inactive
2) COc1ccc(C(Cl)=C(c2ccc(OC)cc2)c2ccc(OC)cc2)cc1 = inactive
3) Cc1ncc([N+](=O)[O-])n1C = inactive
4) CCCCC(CC)C(=O)O (stereo unspecified) = inactive
5) OC[C@H]1O[C@H](O[C@]2(CCl)O[C@H](CCl)[C@@H](O)[C@@H]2O)[C@H](O)[C@@H](O)[C@H]1Cl = inactive

Recorded call for `CCCCNC(=O)NS(=O)(=O)c1ccc(C)cc1` ?
inactive

Hi team, can someone confirm the assay call for `CC12CCC(CC1)C(C)(C)O2` ?
inactive

Which outcome was assigned to `NC(=O)c1cccnc1` in this test?
inactive

So what was the verdict on `CS(=O)(=O)OCCCCOS(C)(=O)=O` in this test?
inactive

State the result this test recorded for `CCCCCCCC(=O)OCC(COC(=O)CCCCCCC)OC(=O)CCCCCCC` .
inactive

###

assay: qHTS RealTime-Glo MT Cell Viability Assay in HepG2 cells - 8 hour (AID 1224873); settings: RealTime-Glo luminescence; series mostly up to 76.8 µM; note: nearly all actives have a fitted effect of over 55% in size
Inconclusive results are not listed. Active and inactive are the calls of the source. The call rests on the fitted dose curve; in most records, active means well fitted cell-killing curve with a large enough effect in the repeat runs; inconclusive means weak or mixed curves; inactive means flat fitted curve, though single readings scatter.
Hi there, use one of these labels in your reply, thanks! active, inactive

1) CC12CCC(CC1)C(C)(C)O2 = inactive
2) O=C1NC(=O)C(c2ccccc2)(c2ccccc2)N1 = inactive

Next:
Would you mind telling me which call this test gave `Nc1ccc(S(N)(=O)=O)cc1` ?
inactive

###

target: Nuclear receptor subfamily 1 group I member 2 (Homo sapiens) (UniProt O75469); assay: Human pregnane X receptor (PXR) small molecule agonists, qHTS assay (AID 1346982); details: PXR-Luc HepG2, CYP3A4 luciferase reporter, 24 h; series mostly up to 92.4 µM; note: nearly all actives have a fitted effect of over 35% in size
Sequence (O75469 whole entry, looked up): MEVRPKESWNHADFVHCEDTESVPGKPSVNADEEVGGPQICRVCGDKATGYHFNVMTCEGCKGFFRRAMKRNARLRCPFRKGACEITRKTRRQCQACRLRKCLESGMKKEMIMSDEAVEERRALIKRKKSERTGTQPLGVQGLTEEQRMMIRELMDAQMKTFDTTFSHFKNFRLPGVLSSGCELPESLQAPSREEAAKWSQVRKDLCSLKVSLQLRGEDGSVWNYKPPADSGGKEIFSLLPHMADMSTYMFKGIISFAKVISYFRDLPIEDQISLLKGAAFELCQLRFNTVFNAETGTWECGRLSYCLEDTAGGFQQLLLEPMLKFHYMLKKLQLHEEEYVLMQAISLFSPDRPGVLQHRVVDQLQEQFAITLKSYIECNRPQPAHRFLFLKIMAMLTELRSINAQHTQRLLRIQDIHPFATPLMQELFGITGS
Inconclusive results are not listed. Activity calls are given as the source filed them. The call rests on the fitted dose curve; in most records, active means well fitted activation curve with a large enough effect in the repeat runs; inconclusive means weak or mixed curves; inactive means no such curve, though single readings can be large or run the other way.
Respond using exactly one of the listed classes: active, inactive

Solved cases below.
1. O=C1OC2(c3ccccc31)c1cc(Br)c(O)c(Br)c1Oc1c2cc(Br)c(O)c1Br = inactive
2. COc1ccc2cc(S(=O)(=O)N[C@H](CC(=O)N[C@H](Cc3ccc(CN4[C@H](C)CCC[C@@H]4C)cc3)C(=O)N(C)C(C)C)c3ccc4c(c3)OCO4)ccc2c1 = inactive
3. C=CCc1ccc(O)c(OC)c1 = inactive

Record lookup: outcome of this test for `O=S1(=O)OC(c2ccc(O)cc2)(c2ccc(O)cc2)c2ccccc21` ?
inactive

Per the records of this test, what outcome belongs to `O=CC(=O)c1ccccc1` ?
inactive

What did the test return for `Nc1ccc2c(c1)CN1C(=O)c3ccccc3C1=N2` ?
active
